Target: SXA (Selenomonas ruminantium)
Test: SXA-catalyzed hydrolysis of 4NP-glycoside substrates, initial rates (Methods A and B);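 note: initial rates from 4-nitrophenol release, tracked by absorbance over roughly 0.3 min and converted using product-minus-substrate extinction differences, in 1 mL mixtures started by enzyme addition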
Assay type: biochemical
Conditions: 5 mM 4NP glycoside, 100 mM succinate-NaOH, pH 5.3, 25° C., Method A; initial rate relative to 4NPX
Below: a set of entries, each annotated with reported Relative Rate.

Compound: C[C@@H]1O[C@@H](Oc2ccc([N+](=O)[O-])cc2)[C@@H](O)[C@H](O)[C@@H]1O [4-Nitrophenyl-α-L-fucopyranoside]
Target System: SXA (Selenomonas ruminantium)
Relative Rate: <10^−6

Compound: C[C@H]1O[C@@H](Oc2ccc([N+](=O)[O-])cc2)[C@H](O)[C@@H](O)[C@H]1O [4-Nitrophenyl-β-D-fucopyranoside]
Target System: SXA (Selenomonas ruminantium)
Relative Rate: <10^−6

Compound: O=[N+]([O-])c1ccc(O[C@@H]2O[C@H](CO)[C@H](O)[C@H](O)[C@H]2O)cc1 [4-Nitrophenyl-β-D-galactopyranoside]
Target System: SXA (Selenomonas ruminantium)
Relative Rate: <10^−6

Compound: O=[N+]([O-])c1ccc(O[C@@H]2O[C@H](CO)[C@@H](O)[C@H](O)[C@@H]2O)cc1 [4-Nitrophenyl-β-D-mannopyranoside]
Target System: SXA (Selenomonas ruminantium)
Relative Rate: <10^−6

Compound: O=[N+]([O-])c1ccc(O[C@@H]2OC[C@@H](O)[C@H](O)[C@H]2O)cc1 [4NPX, 4-nitrophenyl-β-D-xylopyranoside]
Target System: SXA (Selenomonas ruminantium)
Relative Rate: 1.00 ± 0.01

Compound: O=[N+]([O-])c1ccc(O[C@H]2OC[C@@H](O)[C@H](O)[C@H]2O)cc1 [4-Nitrophenyl-α-D-xylopyranoside]
Target System: SXA (Selenomonas ruminantium)
Relative Rate: <10^−6

###

Target: Selenomonas ruminantium GA192 β-D-xylosidase (SXA), wild type, SEQ ID NO: 2 (Pseudoselenomonas ruminantium, UniProt O52575)
Assay: Steady-state kinetics of SXA with X2-X6, improved quenching, HPLC (Example 3)
Conditions: 100 mM succinate-NaOH, pH 5.3, 25° C
# binarize kcat: threshold 100 s⁻¹ inclusive, high side true, low side false

Compound: OC1OC[C@@H](O[C@@H]2OC[C@@H](O[C@@H]3OC[C@@H](O[C@@H]4OC[C@@H](O[C@@H]5OC[C@@H](O)[C@H](O)[C@H]5O)[C@H](O)[C@H]4O)[C@H](O)[C@H]3O)[C@H](O)[C@H]2O)[C@H](O)[C@H]1O (some centres unmarked)
Class: false
--
Compound: OC1OC[C@@H](O[C@@H]2OC[C@@H](O[C@@H]3OC[C@@H](O[C@@H]4OC[C@@H](O)[C@H](O)[C@H]4O)[C@H](O)[C@H]3O)[C@H](O)[C@H]2O)[C@H](O)[C@H]1O (some centres unmarked)
Class: false
--
Compound: OC1OC[C@@H](O[C@@H]2OC[C@@H](O)[C@H](O)[C@H]2O)[C@H](O)[C@H]1O (some centres unmarked)
Class: true
--
Compound: OC1OC[C@@H](O[C@@H]2OC[C@@H](O[C@@H]3OC[C@@H](O[C@@H]4OC[C@@H](O[C@@H]5OC[C@@H](O[C@@H]6OC[C@@H](O)[C@H](O)[C@H]6O)[C@H](O)[C@H]5O)[C@H](O)[C@H]4O)[C@H](O)[C@H]3O)[C@H](O)[C@H]2O)[C@H](O)[C@H]1O (some centres unmarked)
Class: false
--
Compound: OC1OC[C@@H](O[C@@H]2OC[C@@H](O[C@@H]3OC[C@@H](O)[C@H](O)[C@H]3O)[C@H](O)[C@H]2O)[C@H](O)[C@H]1O (some centres unmarked)
Class: false
